Catalogue of absorption maximum values
test: solvent given as SMILES; conditions: in CC#N
Respond with the bare value in nm.

# molecule, output unit, observed
records = [
    ("COC(=O)c1cc(=O)n(C)c2cc(-c3cccc(N(C)C)c3)sc12", "nm", 396),
    ("CN(C)c1ccc(/C=C/C=C2\\CC/C(=C\\C=C\\c3ccc(N(C)C)cc3)C2=O)cc1", "nm", 490),
    ("c1ccc(-c2cc(-c3ccc4ccc5c(-c6ccnc(-c7ccccn7)c6)ccc6ccc3c4c65)ccn2)nc1", "nm", 360),
    ("CCCCCCCCCCCCNc1cccc2[n+]1[B-](F)(F)n1c(c3cccc4cccc1c43)=N2", "nm", 493),
    ("C=CCOc1ccc(-c2nc3cc(C(NC(=O)OC(C)(C)C)C(=O)OC)ccc3o2)cc1 (centres undefined)", "nm", 309),
]

Supply absorption maximum value. Item: "CCOC(=O)c1c(C=Cc2ccccc2)oc(NC2CCCCC2)c1C(=O)OCC"
384

Supply absorption maximum value. Item: "CN(C)c1ccc2cc(C3=[O+][B-](F)(F)OC(c4ccccc4)=C3)ccc2c1"
503

Supply absorption maximum value. Item: COC(=O)C(Cc1ccc2oc(-c3ccc(N(c4ccccc4)c4ccccc4)cc3)nc2c1)NC(=O)OC(C)(C)C (centres undefined)
360.5

Supply absorption maximum value. Item: "F[B-]1(F)n2cccc2C(c2c3ccccc3c(-c3ccccc3)c3ccccc23)=C2C=CC=[N+]21"
502

###

test: solvent given as SMILES; details: in CS(C)=O
Strictly below 400 nm in absorption maximum: Satisfied. Otherwise: Not satisfied.

Bench note: check whether "c1ccc(-c2csc(-c3ccncc3)n2)cc1" shows absorption maximum below 400 nm
Satisfied

Bench note: check whether "CN(C)c1ccc(/C=C2\CCCC2=O)cc1" shows absorption maximum below 400 nm
Satisfied

Bench note: check whether "CCCCCCCCC1(CCCCCCCC)c2cc(-c3ccc(C=C4C(=O)c5ccccc5C4=O)cc3)ccc2-c2ccc(-c3ccc(C=C4C(=O)c5ccccc5C4=O)cc3)cc21" shows absorption maximum below 400 nm
Not satisfied

Bench note: check whether "CCN(CC)c1ccc2c(c1)oc(=O)c1c(=O)oc3cc(Br)ccc3c12" shows absorption maximum below 400 nm
Not satisfied

Bench note: check whether "CCOc1cc2c(cc1/C=C/C(=C(C#N)C#N)c1ccccc1)c1ccccc1n2CC" shows absorption maximum below 400 nm
Not satisfied

###

test: solvent given as SMILES; details: in ClC(Cl)Cl
assay metric: absorption maximum (nm)
Respond with the bare value in nm.

# molecule, assay metric, observed
records = [
    ("COc1cc(/C=C/c2nc3ccccc3o2)c(OC)cc1/C=C/c1nc(C)nc(/C=C/c2cc(OC)c(/C=C/c3nc4ccccc4o3)cc2OC)n1", "absorption maximum", 436),
    ("CCC1=C(C)C(=O)n2c1cc1c(CCC(=O)OC)c(C)c(C)n1c2=O", "absorption maximum", 429),
    ("CCCCCCCCOc1ccc(-c2c3c4n(c(-c5ccc(OCCCCCCCC)cc5)c3c3n2[B-](F)(F)[n+]2c(sc5ccccc52)N=3)[B-](F)(F)[n+]2c(sc3ccccc32)N=4)cc1", "absorption maximum", 655),
    ("CN1C(=CC2=C([O-])C(=CC3=[N+](C)c4ccc(Cl)cc4C3(C)C)C2=O)C(C)(C)c2cc(Cl)ccc21", "absorption maximum", 641),
]

Supply absorption maximum value. Item: "CCCCCCCCN1C(=O)c2ccc3c4c(-c5ccc6c7ccccc7n(-c7ccccc7)c6c5)cc5c6c(ccc(c7c(-c8ccc9c%10ccccc%10n(-c%10ccccc%10)c9c8)cc(c2c37)C1=O)c64)C(=O)N(CCCCCCCC)C5=O"
577

Supply absorption maximum value. Item: "CC1(C)C(/C=C2\C(=O)C(/C=C3\Nc4ccccc4C3(C)C)=C2[O-])=[NH+]c2ccccc21"
654

###

test: solvent given as SMILES; conditions: in C1CCCCC1
assay metric: absorption maximum (nm)
Respond with the bare value in nm.

# molecule, output unit, absorption maximum
rows = [
    ("Cc1ccc(C2=C3C=c4c(oc5ccccc45)=[N+]3[B-](F)(F)n3c2cc2c4ccccc4oc23)cc1", "nm", 584.5),
    ("CCCCCCCCOc1ccc2c3c(c4ccc(OCCCCCCCC)cc4c2c1)C(C)(C)c1ccccc1-3", "nm", 388),
    ("C=CB1C=Cc2ccc3ccccc3c2N1", "nm", 355),
    ("c1ccc(C2CCN3COc4c5ccccc5c5c6c7c(c2c3c46)C(c2ccccc2)CCN7CO5)cc1 (stereo not given)", "nm", 403),
]

Turning now to a further molecule:
Supply absorption maximum value. Item: "C(=C\c1nc2ccccc2o1)/c1ccccc1"
320

###

assay: solvent given as SMILES; settings: in ClC(Cl)Cl
Catalogue of absorption maximum values
Respond with the bare value in nm.

Answered cases to consult:
# molecule, absorption maximum / nm
records = [
    ("N#Cc1nc(N(Cc2ccc(I)cc2)Cc2ccc(I)cc2)c(C#N)nc1N(Cc1ccc(I)cc1)Cc1ccc(I)cc1", 484),
    ("CN(C)c1ccc(-c2ccc(-c3nc(C#N)c(C#N)n3C)cc2)cc1", 348),
    ("CCCCCCN1C(=O)c2cccc3cc(/N=C\\c4ccc5c(c4)c4ccccc4n5CC)cc(c23)C1=O", 340),
    ("CC(C)(C)C1Nc2c(Cl)cc(Cl)cc2C(=O)N1Cc1ccccc1 (stereo not drawn)", 357),
    ("CN1C(=CC2=C([O-])C(=Cc3oc(-c4ccc(-c5ccccc5)cc4)c[n+]3C)C2=O)C(C)(C)c2ccccc21", 606),
    ("O=C1CCCC2=C1CC1=C(CCCC1=O)N2NC(=O)c1ccc(O)cc1", 368),
]

Supply absorption maximum value. Item: "Cc1ccc(C2=C3C=CC4=[N+]3[B-](F)(F)n3c2ccc3-c2ccc([nH]2)/C(c2ccc(C)cc2)=c2/cc/c(o2)=C(\c2ccc(C)cc2)c2ccc4[nH]2)cc1"
703

Supply absorption maximum value. Item: "CCC1(CC)c2ccccc2-c2c1c1c(c3c2C(CC)(CC)c2cc(B(c4c(C)cc(C)cc4C)c4c(C)cc(C)cc4C)ccc2-3)C(CC)(CC)c2cc(B(c3c(C)cc(C)cc3C)c3c(C)cc(C)cc3C)ccc2-1"
362

###

experiment: solvent given as SMILES; conditions: in ClC(Cl)Cl
assay metric: absorption maximum (nm)
Respond with the bare value in nm.

Answered cases to consult:
# smiles string, absorption maximum [nm]
records = [
    ("CCCCCCOc1ccc(-c2cnc(-c3nnc(-c4ccc(OCCCCCC)cc4)o3)o2)cc1", 325),
    ("NC(=O)Cc1cccc2ccccc12", 283),
    ("COc1ccc(C2=Cc3c4ccccc4cc[n+]3[B-](F)(F)O2)cc1", 410.5),
    ("CCCN1C(=O)C(=CC=CC=C2Oc3ccccc3N2CCCS(=O)(=O)[O-])C(=O)N(CCC)C1=S", 568),
    ("CCCCCCCC1=C(C)C(=O)n2c1cc1[nH]c(C(=O)OC)c(C)c1c2=O", 396),
    ("Cc1cc(=O)oc2cc3c4ccc(C(C)(C)C)cc4c4cc(C(C)(C)C)ccc4c3cc12", 385),
]

Supply absorption maximum value. Item: "CN(C)c1ccc(/C=C/C=C2\CCCC2=O)cc1"
404

Supply absorption maximum value. Item: "F[B-]1(F)n2ccnc2-c2cccc[n+]21"
300

Supply absorption maximum value. Item: "COc1ccc2c(C=C(C#N)C#N)cc3ccc4cc(C=C(C#N)C#N)c5ccc(OC)cc5c4c3c2c1"
456

Supply absorption maximum value. Item: "O=c1oc2ccccc2cc1-c1ccc([N+](=O)[O-])cc1"
341

###

assay: solvent given as SMILES; conditions: in C1COCCO1
assay metric: absorption maximum (nm)
Respond with the bare value in nm.

# molecule, output unit, absorption maximum
rows = [
    ("CCCCC1=Cc2c3ccc4cccc5ccc(c6cc(-c7ccc(N(c8ccccc8)c8ccccc8)cc7)n(c26)P1(=O)c1ccccc1)c3c45 (centres undefined)", "nm", 432),
    ("O=c1cc(COc2ccc(I)cc2)c2c(ccc3ccccc32)o1", "nm", 348),
    ("O=C1NC(c2ccccc2)=N/C1=C\\c1ccccc1", "nm", 384),
]

Supply absorption maximum value. Item: "F[B-]1(F)n2c(nc(-c3ccccc3)c2-c2ccccc2)-c2cccc[n+]21"
387

Supply absorption maximum value. Item: NS(=O)(=O)c1ccc(N2N=C(c3ccc(O)cc3)CC2c2ccccc2)cc1 (centres undefined)
359

Supply absorption maximum value. Item: "CCN(CC)c1ccc(/C=C/C2=[O+][B-](F)(F)Oc3c2c(=O)oc2cc(N(CC)CC)ccc32)cc1"
569

Supply absorption maximum value. Item: "C(/C=C/c1ccc(-n2c3ccccc3c3ccccc32)cc1)=C\c1ccncc1"
356

Supply absorption maximum value. Item: COC(=O)C(Cc1ccc2oc(-c3ccc(N(c4ccccc4)c4ccccc4)cc3)nc2c1)NC(=O)OC(C)(C)C (centres undefined)
363.1

Supply absorption maximum value. Item: "COC(=O)c1ccc(/C=C2\C=C(c3ccc(OC)c(OC)c3)OC2=O)cc1"
423

Supply absorption maximum value. Item: "O=c1[nH]c(=O)n([C@@H]2O[C@H](CO)[C@@H](O)[C@H]2O)cc1-c1cc2ccccc2s1"
322

Supply absorption maximum value. Item: "COC(=O)c1nc2cnc(N(C)C)nc2n1Cc1ccccc1"
358

Supply absorption maximum value. Item: N#Cc1ccc(/C=C/C=C/C2=NC3C(=O)NC(N)=NC3N2[C@H]2C[C@H](O)[C@@H](CO)O2)cc1 (some centres undefined)
395

Supply absorption maximum value. Item: "O=C(/C=C/c1cn(-c2ccccc2)nc1-c1ccccc1)c1c(O)c2ccccc2oc1=O"
405

Supply absorption maximum value. Item: "CC(=O)Nc1ccc(C2=C/C(=C\c3ccc(C#N)cc3)C(=O)N2)cc1"
456

Supply absorption maximum value. Item: "CN(c1ccccc1)c1ccc(/C=C2\C(=O)c3ccccc3S2(=O)=O)cc1"
466

Supply absorption maximum value. Item: COC(=O)C(Cc1ccc2oc(-c3ccc4c(c3)c3ccccc3n4-c3ccccc3)nc2c1)NC(=O)OC(C)(C)C (centres undefined)
327.3

Supply absorption maximum value. Item: "CCCN1C(=O)C(=CC=CC=C2Oc3ccccc3N2CCCS(=O)(=O)[O-])C(=O)N(CCC)C1=S"
565

Supply absorption maximum value. Item: "N#Cc1nc2cnc(N)nc2n1Cc1ccccc1"
331

Supply absorption maximum value. Item: c1ccc(C2CCN3COc4c5ccccc5c5c6c7c(c2c3c46)C(c2ccccc2)CCN7CO5)cc1 (centres undefined)
405
